SYSTEM UNDER TEST: Bile acid receptor (Homo sapiens)
EXPERIMENT SUMMARY: qHTS assay to identify small molecule agonists of the farnesoid-X-receptor (FXR) signaling pathway (AID 743220)
CONDITION NOTES: HEK293T FXR-UAS-bla, beta-lactamase FRET ratio, 16 h; series mostly up to 62.6 µM
Excerpt: National Center for Advancing Translational Sciences [NCATS] NIH Chemical Genomics Center [NCGC] U.S. Environmental Protection Agency [EPA] National Institutes of Environmental Health Sciences [NIEHS] National Toxicology Program [NTP] U.S. Food and Drug Administration [FDA] The farnesoid-X-receptor (FXR), a nuclear hormone receptor, is highly expressed in liver, intestine, kidney and adrenal cortex. Natural ligands of FXR are the bile acids (Cholic acid, Chenodeoxy cholic acid etc). […]
Inconclusive results are not listed. Activity calls are given as the source filed them. Calls follow the shape of the dose curve; as a rule, active = well fitted activation curve with a large enough effect in the signal ratio in the repeat runs (not every such curve was filed as active); inconclusive = weak or mixed curves, or effect the other way; inactive = flat fitted curve, though single readings scatter; the % refers to the signal ratio.
QUANTITY KIND: activation

// known answers, use as guide
                              compound  quantity_kind    result
0                C=Cc1ccc(C(C)(C)C)cc1     activation  inactive
1                    Nc1nnnn1-c1ccccc1     activation  inactive
2  O=C(Cn1ccnc1[N+](=O)[O-])NCc1ccccc1     activation  inactive
3                      CCCCCCCCCCCCCBr     activation  inactive
4              OC1(c2ccc(Cl)cc2)CCNCC1     activation  inactive

GET /values?readout=activation&item= OCC1CCC(CO)CC1 (stereo not drawn)
inactive

Endpoint output: activation of `C[C@@H](O)C(=O)O` . Value?
inactive

Which value of activation has been reported for `CC1(C)[C@H]2CC[C@](C)(C2)[C@H]1O` in the records?
inactive

Provenance of the data: PubChem BioAssay (Tox21)
